From: patent US20250154277A1

# ASSAYED SYSTEM: T1, human 5T4-His protein (human, UniProt Q13641 32-355)
# T1 construct: also called recombinant 5T4 protein (human 5T4-his tag); human 5T4 protein; not shown: His tag
# T1 sequence (looked up): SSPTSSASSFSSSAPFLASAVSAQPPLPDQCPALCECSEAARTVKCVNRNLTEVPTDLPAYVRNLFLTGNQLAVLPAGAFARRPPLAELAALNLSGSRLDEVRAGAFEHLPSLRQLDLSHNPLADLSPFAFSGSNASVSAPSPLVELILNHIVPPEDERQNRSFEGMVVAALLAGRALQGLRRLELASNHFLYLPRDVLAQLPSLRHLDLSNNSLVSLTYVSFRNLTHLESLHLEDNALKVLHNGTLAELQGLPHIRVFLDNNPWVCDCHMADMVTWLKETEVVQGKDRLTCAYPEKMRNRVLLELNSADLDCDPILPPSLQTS
# ASSAY PROTOCOL: SPR Biacore, Protein A capture
# koff listing for each entry below
Reply numerically in s⁻¹, unit not repeated.

[
  {
    "BINDER": "367B8 chimeric antibody (antibody, V domains shown, chimeric mAb) VH: QVQLQQPGTELVKPGASVKLSCKASGYTFTSYWMHWVKQRPEQGLEWIGNINPSNGNTNYNENFKSQATLTVDKSSSTAYMQLSSLTSEDSAVYYCARGGWDFDYWGQGTTLTVSS VL: QVVLTQSPAIMSASPGEKVTMTCSASSSVRYIHWYQQRSGTSPKRWIYDTSKLTSGVPVRFSGSGSGTSYSLTISSMEAEDAATYYCQQWTSKPPWTFGGGTKLEIR",
    "koff, s⁻¹": 0.000167
  }
]

Now look at this one.
response.value for 113H5 chimeric antibody (antibody, V domains shown, chimeric mAb) VH: DVQLQESGPGLVKPSQSLSLTCSVTGYSITSGYYWNWIRQFPGNKLEWMGYINSDGSNNYNPSLKNRISITRDTSKNQFFLKLNSVTTEDTATYYCAREEYDYWFAYWGQGTLVTVSA VL: DIVMTQSQKFMSTSVGDRVSVTCKASQNVGTNVAWYQQKPGQSPKALIYSASNRYSGVPDRFTGSGFGTDFTLTISNVQSEDLTEYFCQQYNSYPYTFGGGTNLEIK (field: koff) = 0.000192
